Tested on: BT-474 cells
Experiment: MTS viability assay, BT-474 breast cancer cells
Assay type: cell-based, human
Settings: read-out: CC50 against BT 474 cell lines
Description: FIG. 2C. Effects of compounds 1-11 on the viability of BT-474 cells. BT-474 cells were cultured in DMEM/F12 medium supplemented with 10% FBS. Equal numbers were dispersed into 96-well plates. After 24 h, the cells were incubated with compounds 1-11 (0-30 μM) for 48 h. […] The OD490 was read with a plate reader. […] The effects of the GAELs on the viability of the various epithelial cancer cell lines was determined as previously described. […] The OD490 was read with a plate reader. […]
quantity.name: CC50 (µM)
Report as a plain number; the unit µM is understood.

**Q:** Entry `CCCCCCCCCCCCCCCCOC[C@@H](CN=[N+]=[N-])O[C@@H]1O[C@H](CO)[C@@H](O)[C@H](O)[C@H]1N` : reported CC50 = ?
**A:** 22
